Assay: Clearance in rat at 1 mg/kg, iv
Format: ADME, organism-based
Set-up: dose 1 mg/kg, route intravenous
Conditions: in vivo
Reported clearance values for a set of molecules

>  <smiles-record>
CC(C)c1cc2c(-c3ccc(S(=O)(=O)NCCO)cc3)ccnc2[nH]1

>  <clearance>
2.34 L/h/kg

$$$$
>  <smiles-record>
C[C@@H](CO)NS(=O)(=O)c1ccc(-c2ccnc3[nH]c(C(F)(F)F)cc23)cc1

>  <clearance>
0.42 L/h/kg

$$$$
>  <smiles-record>
CC(C)(O)CNS(=O)(=O)c1ccc(-c2ccnc3[nH]c(C4CC4)cc23)cc1

>  <clearance>
0.84 L/h/kg

$$$$
>  <smiles-record>
O=S(=O)(NCCO)c1ccc(-c2ccnc3[nH]c(C4CC4)cc23)cc1

>  <clearance>
0.78 L/h/kg

$$$$
>  <smiles-record>
C[C@@H](CO)NS(=O)(=O)c1ccc(-c2ccnc3[nH]c(C4CC4)cc23)cc1

>  <clearance>
0.9 L/h/kg

$$$$

Could you now look at the following molecule, please?
// Cc1cc2c(-c3ccc(S(=O)(=O)NCC(C)(C)O)cc3)ccnc2[nH]1 : clearance value = 4.2 L/h/kg
